System: DU-145
experiment.notes: cells
Type: cell-based
run.parameters: DU-145, 10^−5 M, 48 h
Rule for this label: Yes means Growth percent (G%) is less than 40%; No means Growth percent (G%) is at least 40%.

| smiles.notation | label |
| --- | --- |
| O=C1C(Cl)=C(c2c(O)c3c(=O)n(-c4ccccc4)c4ccccc4c3oc2=O)C(=O)c2ccccc21 | Yes |
| O=C1c2ccccc2C(=O)c2c1oc1c2c(=O)[nH]c2ccccc21 | No |
| O=C1c2ccccc2C(=O)c2c1oc1c2c(=O)[nH]c2ccc(Cl)cc21 | Yes |
| Cn1c(=O)c2c3c(oc2c2ccccc21)C(=O)c1ccccc1C3=O | No |
| Cn1c(=O)c2c(=O)c3c4c(oc3oc2c2ccccc21)C(=O)c1ccccc1C4=O | No |
| CCn1c(=O)c2c(=O)c3c4c(oc3oc2c2ccccc21)C(=O)c1ccccc1C4=O | No |

----------
System: NCI-H23
experiment.notes: cells
Type: cell-based
run.parameters: NCI-H23, 10^−5 M, 48 h
Returns: string. Value is yes if measured Growth percent (G%) is below 70%, and no if it is greater than or equal to it.

| smiles.notation | target.system | label |
| --- | --- | --- |
| CCn1c(=O)c2c(=O)c3c4c(oc3oc2c2ccccc21)C(=O)c1ccccc1C4=O | NCI-H23 | yes |
| O=C1C(Cl)=C(c2c(O)c3c(=O)n(-c4ccccc4)c4ccccc4c3oc2=O)C(=O)c2ccccc21 | NCI-H23 | yes |
| Cn1c(=O)c2c(=O)c3c4c(oc3oc2c2ccccc21)C(=O)c1ccccc1C4=O | NCI-H23 | no |
| O=C1c2ccccc2C(=O)c2c1oc1c2c(=O)[nH]c2ccccc21 | NCI-H23 | yes |
| O=C1c2ccccc2C(=O)c2c1oc1c2c(=O)[nH]c2ccc(Cl)cc21 | NCI-H23 | yes |
| Cn1c(=O)c2c3c(oc2c2ccccc21)C(=O)c1ccccc1C3=O | NCI-H23 | no |

----------
Form field: pIC50 (one value per entry).
target.system: ERK2 (Rattus norvegicus, UniProt P63086)
Sequence (P63086 whole entry): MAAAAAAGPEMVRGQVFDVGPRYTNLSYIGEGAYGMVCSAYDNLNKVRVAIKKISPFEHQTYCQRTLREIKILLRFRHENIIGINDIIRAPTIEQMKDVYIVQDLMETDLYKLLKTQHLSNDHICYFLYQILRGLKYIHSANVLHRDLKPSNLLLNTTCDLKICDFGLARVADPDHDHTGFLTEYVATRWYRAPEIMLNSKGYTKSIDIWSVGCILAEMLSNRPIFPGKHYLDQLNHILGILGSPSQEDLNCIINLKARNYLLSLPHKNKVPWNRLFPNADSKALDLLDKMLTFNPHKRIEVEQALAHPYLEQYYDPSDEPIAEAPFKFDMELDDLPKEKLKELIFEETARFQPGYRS
experiment.notes: in vitro radioactive kinase assay, Ets-1 phosphorylation by ERK2
Format: biochemical
run.parameters: read-out: ERK2 IC50 at 100 μM ATP /10mM Ets-1; Table 4; 100 μM ATP /10mM Ets-1
pIC50: −log10 of the molar value.
quantity: pIC50

| smiles.notation | target.system | comparative.sign | readout.value |
| --- | --- | --- | --- |
| Cn1c(=O)c2c(=O)c3c4c(oc3oc2c2ccccc21)C(=O)c1ccccc1C4=O | ERK2 (Rattus norvegicus, UniProt P63086) | < | 4.00 |
| CCn1c(=O)c2c(=O)c3c4c(oc3oc2c2ccccc21)C(=O)c1ccccc1C4=O | ERK2 (Rattus norvegicus, UniProt P63086) | = | 5.08 |

----------
Tested on: IGROV1
experiment.notes: cells
Format: cell-based
run.parameters: IGROV1, 10^−5 M, 48 h
quantity: Growth percent (G%)

| compound | quantity | readout.value |
| --- | --- | --- |
| O=C1C(Cl)=C(c2c(O)c3c(=O)n(-c4ccccc4)c4ccccc4c3oc2=O)C(=O)c2ccccc21 [compound 6] | Growth percent (G%) | 71.85 |
| O=C1c2ccccc2C(=O)c2c1oc1c2c(=O)[nH]c2ccc(Cl)cc21 [3b] | Growth percent (G%) | −3.63 |
| Cn1c(=O)c2c3c(oc2c2ccccc21)C(=O)c1ccccc1C3=O [3e] | Growth percent (G%) | 68.65 |
